Collected Activity values appear next to each entry.
# Species on record: Rattus norvegicus
# Method summary: Allosteric modulation of rat GABAA alpha1beta2gamma2S receptor expressed in Xenopus laevis oocytes assessed as potentiation of GABA-induced chloride ion current at holding potential -70 mV at 100 uM by two-microelectrode voltage clamp assay relative to GABA-treated control
# Format: cell-based
Reply numerically in %, unit not repeated.

Answered cases to consult:
- Record smiles: "COc1cc(/C=C/c2ccc(OC)c(OC)c2)cc(OC)c1"
  Experimental endpoint: "Activity"
  Unit string: "%"
  Assay result: 101
- Record smiles: "COc1ccc(/C=C/c2ccc(OC)cc2)cc1"
  Experimental endpoint: "Activity"
  Unit string: "%"
  Assay result: -24.8
- Record smiles: "Oc1cc(O)cc(/C=C/c2ccc(O)c(O)c2)c1"
  Experimental endpoint: "Activity"
  Unit string: "%"
  Assay result: -35.4
- Record smiles: "COc1ccc(/C=C/c2ccccc2F)cc1"
  Experimental endpoint: "Activity"
  Unit string: "%"
  Assay result: -22.9
- Record smiles: "Oc1cc(O)cc(CCc2ccc(O)c(O)c2)c1"
  Experimental endpoint: "Activity"
  Unit string: "%"
  Assay result: 86.3

Okay, next one:
Incoming: Which Activity value is on record for "Br[C@H](c1ccccc1)[C@@H](Br)c1ccccc1" ?
Outgoing: -12.9

###

# Target or test system: GABA-A receptor; alpha-1/beta-3/gamma-2 (Homo sapiens, UniProt P14867+P18507+P28472)
# Sequence (P14867 whole entry): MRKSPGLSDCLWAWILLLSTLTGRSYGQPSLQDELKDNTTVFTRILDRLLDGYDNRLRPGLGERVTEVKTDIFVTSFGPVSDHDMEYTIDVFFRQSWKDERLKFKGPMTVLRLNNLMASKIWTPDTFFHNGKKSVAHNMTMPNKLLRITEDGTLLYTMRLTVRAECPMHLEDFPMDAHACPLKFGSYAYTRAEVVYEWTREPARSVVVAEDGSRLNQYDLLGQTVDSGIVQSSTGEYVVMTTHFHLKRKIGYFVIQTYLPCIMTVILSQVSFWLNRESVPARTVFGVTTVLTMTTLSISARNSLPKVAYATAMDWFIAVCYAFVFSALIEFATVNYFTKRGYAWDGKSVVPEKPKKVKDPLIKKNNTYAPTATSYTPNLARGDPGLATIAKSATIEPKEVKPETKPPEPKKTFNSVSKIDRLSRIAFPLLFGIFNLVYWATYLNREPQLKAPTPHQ
# Sequence (P18507 whole entry): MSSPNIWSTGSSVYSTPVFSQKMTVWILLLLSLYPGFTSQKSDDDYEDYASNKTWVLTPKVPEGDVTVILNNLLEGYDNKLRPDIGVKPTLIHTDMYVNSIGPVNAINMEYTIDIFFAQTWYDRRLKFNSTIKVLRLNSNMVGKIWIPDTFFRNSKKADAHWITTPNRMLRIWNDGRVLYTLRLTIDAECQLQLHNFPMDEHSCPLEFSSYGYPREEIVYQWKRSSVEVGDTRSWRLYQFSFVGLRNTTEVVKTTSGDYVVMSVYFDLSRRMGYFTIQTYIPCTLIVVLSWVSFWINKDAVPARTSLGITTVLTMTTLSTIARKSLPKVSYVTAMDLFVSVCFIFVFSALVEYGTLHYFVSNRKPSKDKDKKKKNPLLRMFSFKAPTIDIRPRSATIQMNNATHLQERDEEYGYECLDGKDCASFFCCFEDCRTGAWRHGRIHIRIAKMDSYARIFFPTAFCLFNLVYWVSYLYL
# Sequence (P28472 whole entry): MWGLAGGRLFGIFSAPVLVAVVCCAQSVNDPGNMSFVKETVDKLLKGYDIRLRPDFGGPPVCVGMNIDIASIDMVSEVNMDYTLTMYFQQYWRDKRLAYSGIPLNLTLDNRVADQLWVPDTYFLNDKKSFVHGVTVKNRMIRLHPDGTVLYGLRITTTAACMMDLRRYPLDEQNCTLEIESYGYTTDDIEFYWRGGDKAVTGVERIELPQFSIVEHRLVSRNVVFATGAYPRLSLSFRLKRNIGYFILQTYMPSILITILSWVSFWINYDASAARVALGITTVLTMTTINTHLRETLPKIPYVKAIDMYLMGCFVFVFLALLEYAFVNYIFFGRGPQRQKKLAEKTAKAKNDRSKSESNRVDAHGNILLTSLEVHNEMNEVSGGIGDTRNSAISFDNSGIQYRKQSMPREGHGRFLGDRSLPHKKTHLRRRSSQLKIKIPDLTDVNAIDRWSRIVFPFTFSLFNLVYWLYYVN
# Method summary: Modulation of GABAA alpha1beta3gamma2S receptor (unknown origin) expressed in Xenopus laevis oocytes assessed as potentiation of EC3 to 10 GABA-induced chloride ion current at holding potential -70 mV by two-microelectrode voltage clamp assay
Experimental endpoint: EC50 (µM)
Reply numerically in µM, unit not repeated.

Incoming: Which EC50 value is on record for COc1cc(O)cc(CCc2cccc(O)c2)c1 [BATATASIN III] ?
Outgoing: 67.2

###

# Target or test system: GABA A receptor alpha-3/beta-2/gamma-2 (Homo sapiens, UniProt P18507+P34903+P47870)
# Sequence (P47870 whole entry): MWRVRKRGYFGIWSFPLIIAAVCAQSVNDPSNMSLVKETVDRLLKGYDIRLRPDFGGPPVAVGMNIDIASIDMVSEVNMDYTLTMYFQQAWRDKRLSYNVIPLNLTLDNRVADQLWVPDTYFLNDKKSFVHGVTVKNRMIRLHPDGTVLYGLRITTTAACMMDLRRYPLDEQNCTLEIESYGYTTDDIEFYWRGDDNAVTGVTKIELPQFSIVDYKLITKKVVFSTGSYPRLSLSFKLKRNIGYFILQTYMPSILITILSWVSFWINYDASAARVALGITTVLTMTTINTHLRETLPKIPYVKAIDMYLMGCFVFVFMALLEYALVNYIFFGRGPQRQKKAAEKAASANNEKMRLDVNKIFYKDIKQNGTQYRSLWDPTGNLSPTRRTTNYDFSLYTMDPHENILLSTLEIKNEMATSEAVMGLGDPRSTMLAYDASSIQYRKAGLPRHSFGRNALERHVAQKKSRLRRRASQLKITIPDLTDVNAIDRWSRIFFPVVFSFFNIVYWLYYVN
# Sequence (P18507 whole entry): as the sequence (P18507 whole entry) above
# Sequence (P34903 whole entry): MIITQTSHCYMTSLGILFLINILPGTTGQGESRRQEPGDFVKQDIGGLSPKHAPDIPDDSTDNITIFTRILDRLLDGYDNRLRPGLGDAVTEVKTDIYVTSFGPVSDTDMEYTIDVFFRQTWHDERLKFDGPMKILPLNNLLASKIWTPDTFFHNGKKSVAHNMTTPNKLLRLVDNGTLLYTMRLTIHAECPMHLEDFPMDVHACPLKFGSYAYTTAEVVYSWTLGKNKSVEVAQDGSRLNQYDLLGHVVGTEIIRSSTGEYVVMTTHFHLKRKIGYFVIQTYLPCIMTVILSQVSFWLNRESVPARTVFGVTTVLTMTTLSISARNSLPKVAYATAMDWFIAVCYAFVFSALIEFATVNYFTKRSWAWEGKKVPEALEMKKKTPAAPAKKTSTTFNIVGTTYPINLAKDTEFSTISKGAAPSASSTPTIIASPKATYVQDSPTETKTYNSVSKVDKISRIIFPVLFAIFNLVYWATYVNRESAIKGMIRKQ
# Method summary: Modulation of GABAA alpha3beta2gamma2S receptor (unknown origin) expressed in Xenopus laevis oocytes assessed as potentiation of EC3 to 10 GABA-induced chloride ion current at holding potential -70 mV by two-microelectrode voltage clamp assay
Experimental endpoint: pEC50
pEC50 field: float, defined as -log10 of concentration (mol/L).

Incoming: Please state recorded pEC50 (tested on GABA A receptor alpha-3/beta-2/gamma-2 (Homo sapiens, UniProt P18507+P34903+P47870)) of COc1cc(O)cc(CCc2cccc(O)c2)c1 [BATATASIN III]
Outgoing: 4.17

###

# Method summary: Modulation of GABAA alpha5beta2gamma2S receptor (unknown origin) expressed in Xenopus laevis oocytes assessed as potentiation of EC3 to 10 GABA-induced chloride ion current at holding potential -70 mV by two-microelectrode voltage clamp assay
# Assay type: cell-based
# Measurement context: Homo sapiens
Experimental endpoint: EC50

Incoming: Which EC50 value is on record for "COc1cc(O)cc(CCc2cccc(O)c2)c1" ?
Outgoing: 46.7 µM

###

# Target or test system: GABA A receptor alpha-2/beta-2/gamma-2 (Homo sapiens, UniProt P18507+P47869+P47870)
# Sequence (P47869 whole entry, one chain of several): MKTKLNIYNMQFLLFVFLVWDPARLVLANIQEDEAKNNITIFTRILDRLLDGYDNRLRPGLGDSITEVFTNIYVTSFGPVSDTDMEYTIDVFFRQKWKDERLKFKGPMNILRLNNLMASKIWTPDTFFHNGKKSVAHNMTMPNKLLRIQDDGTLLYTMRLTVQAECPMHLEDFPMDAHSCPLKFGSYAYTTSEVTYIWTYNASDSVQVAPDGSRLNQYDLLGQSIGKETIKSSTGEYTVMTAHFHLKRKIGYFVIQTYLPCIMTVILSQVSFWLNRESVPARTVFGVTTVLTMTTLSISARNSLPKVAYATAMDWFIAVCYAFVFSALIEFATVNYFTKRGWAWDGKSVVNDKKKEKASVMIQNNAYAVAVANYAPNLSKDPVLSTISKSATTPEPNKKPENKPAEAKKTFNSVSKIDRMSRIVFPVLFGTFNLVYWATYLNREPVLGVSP
# Method summary: Modulation of GABAA alpha2beta2gamma2S receptor (unknown origin) expressed in Xenopus laevis oocytes assessed as potentiation of EC3 to 10 GABA-induced chloride ion current at holding potential -70 mV by two-microelectrode voltage clamp assay
Experimental endpoint: EC50 (µM)
Reply numerically in µM, unit not repeated.

Incoming: Which EC50 value is on record for "COc1cc(O)cc(CCc2cccc(O)c2)c1" ?
Outgoing: 80.8

meta.source: ChEMBL document CHEMBL3112517
